- target system: UniProtKB Q13255
- Sequence (Q13255 whole entry): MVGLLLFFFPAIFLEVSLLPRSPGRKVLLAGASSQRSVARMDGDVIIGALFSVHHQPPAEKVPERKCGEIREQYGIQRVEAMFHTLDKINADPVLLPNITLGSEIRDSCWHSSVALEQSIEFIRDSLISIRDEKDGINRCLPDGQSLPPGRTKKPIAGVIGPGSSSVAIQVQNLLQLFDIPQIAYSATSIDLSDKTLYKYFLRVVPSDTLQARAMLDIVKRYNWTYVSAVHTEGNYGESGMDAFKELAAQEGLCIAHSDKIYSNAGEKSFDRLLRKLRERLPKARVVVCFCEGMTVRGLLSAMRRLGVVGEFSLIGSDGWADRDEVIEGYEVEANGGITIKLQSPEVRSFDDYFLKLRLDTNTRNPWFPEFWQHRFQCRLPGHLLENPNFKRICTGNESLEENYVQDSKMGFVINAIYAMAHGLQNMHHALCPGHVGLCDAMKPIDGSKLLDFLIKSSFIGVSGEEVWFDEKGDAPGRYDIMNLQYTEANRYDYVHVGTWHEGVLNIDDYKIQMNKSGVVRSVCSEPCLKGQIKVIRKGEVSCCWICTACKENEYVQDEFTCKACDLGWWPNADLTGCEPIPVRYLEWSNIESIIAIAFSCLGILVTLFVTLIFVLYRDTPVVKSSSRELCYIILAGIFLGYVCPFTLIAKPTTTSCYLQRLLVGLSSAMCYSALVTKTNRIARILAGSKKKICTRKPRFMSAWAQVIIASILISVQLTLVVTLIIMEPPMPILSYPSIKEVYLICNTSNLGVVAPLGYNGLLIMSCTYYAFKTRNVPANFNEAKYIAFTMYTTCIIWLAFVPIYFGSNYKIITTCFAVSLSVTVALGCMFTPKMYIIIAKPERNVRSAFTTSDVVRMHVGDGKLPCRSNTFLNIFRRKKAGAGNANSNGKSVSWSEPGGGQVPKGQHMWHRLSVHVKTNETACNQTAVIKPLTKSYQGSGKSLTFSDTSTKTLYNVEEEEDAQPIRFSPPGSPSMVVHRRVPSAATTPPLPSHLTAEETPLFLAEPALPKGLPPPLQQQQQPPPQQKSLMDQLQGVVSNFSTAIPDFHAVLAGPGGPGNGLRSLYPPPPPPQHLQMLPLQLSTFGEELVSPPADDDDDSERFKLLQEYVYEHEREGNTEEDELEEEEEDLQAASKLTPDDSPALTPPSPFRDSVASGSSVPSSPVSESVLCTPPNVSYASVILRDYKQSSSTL
- assay procedure: Positive allosteric modulation of mGluR1 (unknown origin)
pEC50: −log10 of the molar value.
result type: pEC50

Query string: Return reported pEC50; argument: [2H]C([2H])([2H])Oc1cc(F)cc2c(N3CCN(c4ccccc4F)CC3)c(C#N)cnc12
Result string: < 5.00

* * *

- assay procedure: Unbound fraction in rat plasma
- Format: ADME, cell-free
result type: fraction unbound
# output: bare number, no unit

Query string: Return reported fraction unbound; argument: COc1cc(F)cc2c(N3CCN4c5c(F)cccc5OC[C@@H]4C3)c(C#N)nnc12
Result string: 0.3

* * *

- target system: Metabotropic glutamate receptor 2 (Homo sapiens, UniProt Q14416)
- Sequence (Q14416 whole entry): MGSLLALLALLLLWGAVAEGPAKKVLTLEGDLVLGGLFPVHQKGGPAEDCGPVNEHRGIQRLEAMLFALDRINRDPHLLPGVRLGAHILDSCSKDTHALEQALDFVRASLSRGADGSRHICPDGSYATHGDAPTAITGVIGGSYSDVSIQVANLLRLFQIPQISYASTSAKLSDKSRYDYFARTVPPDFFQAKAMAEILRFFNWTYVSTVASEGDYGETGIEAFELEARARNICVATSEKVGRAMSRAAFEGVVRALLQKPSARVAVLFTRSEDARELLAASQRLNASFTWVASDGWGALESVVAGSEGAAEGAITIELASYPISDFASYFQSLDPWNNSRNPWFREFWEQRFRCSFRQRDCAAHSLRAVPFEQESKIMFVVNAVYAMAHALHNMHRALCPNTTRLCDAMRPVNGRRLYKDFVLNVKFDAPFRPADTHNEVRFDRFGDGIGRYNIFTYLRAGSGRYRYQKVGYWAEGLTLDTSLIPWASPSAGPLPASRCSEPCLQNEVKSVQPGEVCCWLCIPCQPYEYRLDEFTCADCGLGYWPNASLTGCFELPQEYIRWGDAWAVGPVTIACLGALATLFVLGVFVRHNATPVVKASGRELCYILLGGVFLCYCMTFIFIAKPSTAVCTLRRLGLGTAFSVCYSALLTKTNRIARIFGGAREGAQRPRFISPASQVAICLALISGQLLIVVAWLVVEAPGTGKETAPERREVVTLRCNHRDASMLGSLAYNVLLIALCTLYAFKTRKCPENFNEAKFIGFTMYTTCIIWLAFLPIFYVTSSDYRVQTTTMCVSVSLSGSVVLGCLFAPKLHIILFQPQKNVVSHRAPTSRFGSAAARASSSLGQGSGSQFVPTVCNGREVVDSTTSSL
- assay procedure: Positive allosteric modulation of mGluR2 (unknown origin)
result type: EC50

Query string: Return reported EC50; argument: [2H]C([2H])([2H])Oc1cc(F)cc2c(N3CCN(c4ccccc4F)CC3)c(C#N)cnc12
Result string: > 10 µM
